Entry source: ChEMBL document CHEMBL6109120

Molecular target: Serine/threonine-protein kinase SIK3 (Homo sapiens, UniProt Q9Y2K2)
Sequence (Q9Y2K2 whole entry): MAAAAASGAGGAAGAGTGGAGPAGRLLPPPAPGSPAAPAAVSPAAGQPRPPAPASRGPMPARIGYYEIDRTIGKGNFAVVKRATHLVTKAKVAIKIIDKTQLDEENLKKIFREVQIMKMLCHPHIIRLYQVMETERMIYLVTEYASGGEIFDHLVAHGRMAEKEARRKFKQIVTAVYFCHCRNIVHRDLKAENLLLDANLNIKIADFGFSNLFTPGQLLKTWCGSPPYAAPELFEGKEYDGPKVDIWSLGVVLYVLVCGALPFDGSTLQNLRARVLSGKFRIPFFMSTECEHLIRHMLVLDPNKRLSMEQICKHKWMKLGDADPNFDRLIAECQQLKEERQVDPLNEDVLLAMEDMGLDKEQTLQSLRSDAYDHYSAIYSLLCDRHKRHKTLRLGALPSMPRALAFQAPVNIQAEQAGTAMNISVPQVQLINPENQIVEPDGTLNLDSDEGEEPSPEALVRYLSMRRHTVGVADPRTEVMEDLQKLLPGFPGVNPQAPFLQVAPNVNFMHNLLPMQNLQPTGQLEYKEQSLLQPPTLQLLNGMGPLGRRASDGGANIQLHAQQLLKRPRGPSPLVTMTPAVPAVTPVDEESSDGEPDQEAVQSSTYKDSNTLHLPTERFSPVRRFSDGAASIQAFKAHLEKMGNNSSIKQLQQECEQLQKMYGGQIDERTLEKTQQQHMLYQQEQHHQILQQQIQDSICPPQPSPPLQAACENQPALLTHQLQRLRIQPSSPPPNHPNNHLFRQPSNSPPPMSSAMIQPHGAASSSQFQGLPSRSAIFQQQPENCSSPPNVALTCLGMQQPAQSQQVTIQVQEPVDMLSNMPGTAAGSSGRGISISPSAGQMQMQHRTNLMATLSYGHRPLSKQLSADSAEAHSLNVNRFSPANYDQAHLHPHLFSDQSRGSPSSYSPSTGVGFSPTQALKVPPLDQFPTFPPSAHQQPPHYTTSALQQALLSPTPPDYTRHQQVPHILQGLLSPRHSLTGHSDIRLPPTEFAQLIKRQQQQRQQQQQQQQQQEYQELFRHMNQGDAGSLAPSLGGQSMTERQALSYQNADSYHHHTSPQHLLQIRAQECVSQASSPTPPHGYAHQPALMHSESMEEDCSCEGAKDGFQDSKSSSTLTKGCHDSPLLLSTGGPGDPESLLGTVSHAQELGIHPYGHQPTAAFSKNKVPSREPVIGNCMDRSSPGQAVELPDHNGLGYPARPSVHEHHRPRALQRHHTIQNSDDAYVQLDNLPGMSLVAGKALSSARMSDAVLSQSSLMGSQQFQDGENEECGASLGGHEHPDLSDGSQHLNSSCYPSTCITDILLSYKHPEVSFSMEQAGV
Assay: Inhibition of recombinant human SIK3 assessed as luminescence signal using AMARAtide/ATP as substrate measured after 120 mins by microplate reader

# mol, IC50
rows = [
    ("COc1cc(-c2cc(-c3cnn(C4CCOCC4)c3)cnc2N)cc2c1C(=O)N(CC#N)CC2", "5.7 nM"),
]

###

Target: Cytochrome P450 3A4 (Homo sapiens)
Sequence (P08684 whole entry): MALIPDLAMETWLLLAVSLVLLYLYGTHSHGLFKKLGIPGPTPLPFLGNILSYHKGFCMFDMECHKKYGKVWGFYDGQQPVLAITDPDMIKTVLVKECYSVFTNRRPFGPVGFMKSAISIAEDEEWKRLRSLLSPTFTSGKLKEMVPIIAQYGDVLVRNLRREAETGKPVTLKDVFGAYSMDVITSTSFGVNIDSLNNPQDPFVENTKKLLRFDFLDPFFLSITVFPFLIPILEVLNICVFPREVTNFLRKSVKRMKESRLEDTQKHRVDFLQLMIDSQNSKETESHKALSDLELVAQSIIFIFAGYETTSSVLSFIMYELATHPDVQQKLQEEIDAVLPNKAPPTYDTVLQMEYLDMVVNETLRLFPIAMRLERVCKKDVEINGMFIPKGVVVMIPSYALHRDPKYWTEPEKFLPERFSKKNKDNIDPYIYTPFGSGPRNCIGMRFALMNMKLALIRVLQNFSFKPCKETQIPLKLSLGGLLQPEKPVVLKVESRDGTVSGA

# mol, IC50
rows = [
    ("COc1nc(-c2cc(-c3cnn(C)c3)cnc2N)cc2c1C(=O)N(CC(F)(F)F)CC2", "> 50 µM"),
]

###

Target: MAP kinase-interacting serine/threonine-protein kinase 2 (Homo sapiens)
Sequence (Q9HBH9 whole entry): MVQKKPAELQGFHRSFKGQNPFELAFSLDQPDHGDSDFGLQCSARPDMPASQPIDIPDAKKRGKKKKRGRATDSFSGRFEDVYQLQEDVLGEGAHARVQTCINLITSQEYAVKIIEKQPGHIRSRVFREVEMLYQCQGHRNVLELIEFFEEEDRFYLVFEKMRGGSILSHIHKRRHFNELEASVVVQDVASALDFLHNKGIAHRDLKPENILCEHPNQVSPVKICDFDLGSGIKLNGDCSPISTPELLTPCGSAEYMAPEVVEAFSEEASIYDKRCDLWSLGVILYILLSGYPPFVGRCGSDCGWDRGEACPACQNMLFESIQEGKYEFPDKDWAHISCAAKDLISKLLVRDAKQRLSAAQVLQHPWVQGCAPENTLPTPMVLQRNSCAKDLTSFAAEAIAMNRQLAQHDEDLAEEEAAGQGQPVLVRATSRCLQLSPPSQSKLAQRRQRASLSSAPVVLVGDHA

# mol, IC50, nM
records = [
    ("COc1nc(-c2cc(-c3cnn(C)c3)cnc2N)cc2c1C(=O)N(CC(F)(F)F)CC2", 15),
]
